Entry source: ChEMBL document CHEMBL2202954

- Tested on: K562
- Test details: Cytotoxicity against human K562 cells by SRB assay
- Assay type: functional
# if measured GI50 < 2 µM: rule met  # else: rule not met

Please state whether GI50 is below 2 µM for Cc1ccc(Cl)cc1NC(=O)c1sc2nc3c(cc2c1N)C(=O)CCC3 rule not met

Problem: For the molecule Cc1cc(C)c(NC(=O)c2sc3nc4c(cc3c2N)C(=O)CCC4)c(C)c1 , is GI50 under 2 µM? rule not met

---

- System: SW-620
- Test details: Cytotoxicity against human SW620 cells assessed as cellular growth at 10 uM by SRB assay
- Type: functional
For each of the compounds below, state its Activity.
Numbers only, in %.

Missing value: Activity, SW-620, entry COc1ccc2nc(NC(=O)c3ccc(F)cc3)sc2c1 . Fill in? 101.19

Hello, I am looking for reported Activity with SW-620 for Nc1c(C(=O)NCc2ccccc2)sc2nc3c(cc12)C(=O)CCC3 . Could you help? 105.63

Missing value: Activity, SW-620, entry COc1ccc2[nH]c(C(=O)NCc3ccccc3)cc2c1 . Fill in? 107.28

Please provide the recorded Activity for Cc1cc(C)c(NC(=O)c2sc3nc4c(cc3c2N)C(=O)CC(C)(C)C4)c(C)c1 , tested on SW-620. 106.45

Recall the recorded Activity for N#Cc1ccc(NC(=O)c2sc3nc4c(cc3c2N)C(=O)CCC4)cc1 with SW-620 and state it. 98.14

Hi! Can you tell me Activity for each of these compounds?
1. Cc1ccc(S(=O)(=O)NC2=NC(=O)/C(=C\c3ccccc3)S2)cc1
2. O=c1/c(=C/c2ccccc2)sc2nc(-c3ccc(Cl)cc3Cl)nn12
3. Clc1ccc(-c2nc(-c3cccs3)no2)cc1

1: 109.53; 2: 101.67; 3: 105.71
